- TARGET ENTITY: S1P1 (PathHunter CHO-K1 EDG1 β-Arrestin cell line) (Homo sapiens, UniProt P21453)
- Sequence (P21453 whole entry): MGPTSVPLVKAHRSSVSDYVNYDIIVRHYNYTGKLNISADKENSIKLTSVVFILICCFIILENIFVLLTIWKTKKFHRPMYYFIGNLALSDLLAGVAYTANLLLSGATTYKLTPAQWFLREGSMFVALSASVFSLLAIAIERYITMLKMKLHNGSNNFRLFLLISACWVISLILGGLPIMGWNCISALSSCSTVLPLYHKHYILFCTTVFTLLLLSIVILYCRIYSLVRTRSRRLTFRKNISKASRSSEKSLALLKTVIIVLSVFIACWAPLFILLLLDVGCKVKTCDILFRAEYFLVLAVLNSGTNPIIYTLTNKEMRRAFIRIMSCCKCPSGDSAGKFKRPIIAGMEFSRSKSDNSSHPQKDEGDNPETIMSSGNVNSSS
- Sequence (P32121 whole entry partner): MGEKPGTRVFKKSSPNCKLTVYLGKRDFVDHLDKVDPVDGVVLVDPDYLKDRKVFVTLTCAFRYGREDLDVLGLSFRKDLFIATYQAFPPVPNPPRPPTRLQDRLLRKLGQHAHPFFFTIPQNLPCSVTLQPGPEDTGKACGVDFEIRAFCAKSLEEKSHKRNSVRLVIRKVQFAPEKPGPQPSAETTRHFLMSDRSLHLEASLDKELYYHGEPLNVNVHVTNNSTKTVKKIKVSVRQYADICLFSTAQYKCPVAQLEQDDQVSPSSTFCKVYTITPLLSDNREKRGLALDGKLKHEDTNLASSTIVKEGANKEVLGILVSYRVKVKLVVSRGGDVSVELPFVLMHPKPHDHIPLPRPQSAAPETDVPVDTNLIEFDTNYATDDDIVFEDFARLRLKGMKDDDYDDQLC
- ASSAY NAME: S1P-1 β-Arrestin recruitment assay
- PROTOCOL CONDITIONS: CHO-K1 EDG1 β-Arrestin cells, chemi-luminescence
Where a name gives a salt, the structure may show the parent alone.
PROPERTY NAME: EC50

CNC(=O)CCN1CCc2c(ccc(-c3noc(-c4ccc(OC(C)C)c(C#N)c4)n3)c2C)C1; ≤ 10 nM
Cc1c(-c2noc(-c3ccc(OC(C)C)c(C#N)c3)n2)ccc2c1CCN(C(=O)CNC[C@H](O)CO)C2 [Example 126, hydrochloride]; ≤ 10 nM
Cc1c(-c2noc(-c3ccc(OC(C)C)c(C#N)c3)n2)ccc2c1CCN(C(=O)CNC(CO)CO)CC2; ≤ 10 nM

Working through the 4 compounds below one at a time, give EC50 for each.
1. CC(C)Oc1ccc(-c2nc(-c3cccc4c3CCN(CC(O)CO)C4)no2)cc1C#N (stereo not drawn)
2. Cc1c(-c2noc(-c3ccc(OC(C)C)c(C#N)c3)n2)ccc2c1CCN(CC(=O)NCCO)CC2
3. CC(C)Oc1ccc(-c2nc(-c3ccc4c(c3)CCN(CC(=O)NC[C@H](O)CO)CC4)no2)cc1C#N [Example 194, hydrochloride]
4. CC(C)Oc1ccc(-c2nc(-c3ccc4c(c3)CCN(C[C@@H](O)C(=O)N[C@H](C)CO)CC4)no2)cc1C#N [Example 165, hydrochloride]

["≤ 10 nM", "≤ 10 nM", "≤ 10 nM", "≤ 10 nM"]

Working through the 2 compounds below one at a time, give EC50 for each.
1. CC(C)Oc1ccc(-c2nc(-c3ccc4c(c3)CCN(CC(=O)N3CC(O)C3)CC4)no2)cc1C#N [Example 93, hydrochloride]
2. Cc1c(-c2noc(-c3ccc(OC(C)C)c(C#N)c3)n2)ccc2c1CCN(C(=O)CNCCO)C2

["≤ 10 nM", "≤ 10 nM"]

Working through the 6 compounds below one at a time, give EC50 for each.
1. CC(C)Oc1ccc(-c2nc(-c3ccc4c(c3)CCN(C(CO)CO)CC4)no2)cc1C#N
2. Cc1c(-c2noc(-c3ccc(OC(C)C)c(C#N)c3)n2)ccc2c1CCN(C[C@H](O)CO)CC2 [Example 153, hydrochloride]
3. Cc1c(-c2noc(-c3ccc(OC(C)C)c(C#N)c3)n2)ccc2c1CCN(C(=O)CCN)C2 [Example 39, hydrochloride]
4. CC(C)Oc1ccc(-c2nc(-c3ccc4c(c3)CCN(C(=O)CNC(CO)CO)CC4)no2)cc1C#N [Example 197, hydrochloride]
5. COCCN1CCc2c(cccc2-c2nnc(-c3ccc(OC(C)C)c(C#N)c3)s2)C1
6. Cc1c(-c2noc(-c3ccc(OC(C)C)c(C#N)c3)n2)ccc2c1CCN(C(=O)CNCCO)CC2

≤ 100 nM
≤ 100 nM
≤ 10 nM
≤ 10 nM
≤ 100 nM
≤ 10 nM
